# subject of test: Adenosine receptor A1 (Rattus norvegicus)
# Sequence (whole entry): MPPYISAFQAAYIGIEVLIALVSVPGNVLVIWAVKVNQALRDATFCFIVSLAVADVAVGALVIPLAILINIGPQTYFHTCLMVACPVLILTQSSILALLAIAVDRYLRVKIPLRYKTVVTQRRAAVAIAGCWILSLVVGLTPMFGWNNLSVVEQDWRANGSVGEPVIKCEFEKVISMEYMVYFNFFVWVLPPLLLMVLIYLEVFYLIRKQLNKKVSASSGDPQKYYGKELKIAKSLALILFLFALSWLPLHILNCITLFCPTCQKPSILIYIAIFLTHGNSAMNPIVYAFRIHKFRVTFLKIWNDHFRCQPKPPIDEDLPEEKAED
# experiment notes: Reversal of adenylate cyclase inhibition via Adenosine A1 receptor by R-PIA in rat fat cells
# Format: functional, cell-based
metric name: Kb (µM)

The examples below pair each entry with its known result.
smiles	unit string	Kb
Cc1c(C)n(-c2ccccc2)c2ncnc(N)c12	µM	22
Nc1ncnc2c1ccn2-c1ccccc1	µM	4.6

[1] Nc1ncnc2c1c1ccccc1n2-c1ccccc1
[2] Cc1[nH]c2nc(-c3ccccc3)nc(N)c2c1C
[3] Cc1c(C)n(-c2ccccc2)c2nc(-c3ccc(Cl)cc3)nc(N)c12
[4] Cc1c(C)n([C@H](C)c2ccccc2)c2nc(-c3ccccc3)nc(N)c12
[5] Oc1ncnc2c1c1ccccc1n2-c1ccccc1
Qu. Arrange the 5 compounds by rising Kb, starting with the smallest. I'd appreciate it if you listed the labels in the requested order.
Ans. 4, 3, 2, 5, 1
(4: 0.0038 µM, 3: 0.057 µM, 2: 0.8 µM, 5: 1.4 µM, 1: 3.3 µM)

====

# subject of test: Adenosine A2 receptor (Rattus norvegicus, UniProt P29276+P30543)
# experiment notes: Binding affinity against Adenosine A2 receptor from rat striatal membrane using [3H]NECA as radioligand
metric name: Ki (µM)

The examples below pair each entry with its known result.
compound	unit string	Ki
Nc1ncnc2c1ccn2-c1ccccc1	µM	25
Nc1ncnc2c1c1c(n2-c2ccccc2)CCCC1	µM	10.9

[A] Cc1[nH]c2nc(-c3ccccc3)nc(N)c2c1C
[B] Nc1ncnc2c1c(C=O)c(C=O)n2-c1ccccc1
[C] Nc1ncnc2c1c1ccccc1n2-c1ccccc1
Qu. Arrange the 3 compounds by rising Ki, starting with the smallest. I'd appreciate it if you listed the labels in the requested order.
Ans. C, A, B
(C: 5.98 µM, A: 21.3 µM, B: 76.3 µM)

[A] Clc1ncnc2c1c1ccccc1n2-c1ccccc1
[B] C=CCn1c(C)c(C)c2c(N)ncnc21
Qu. Could you kindly indicate whether A or B has the higher Ki value? Indicate which entry you chose by stating its label.
Ans. B
(B: 83 µM, A: 4.06 µM)

====

# subject of test: Adenosine A2 receptor (Rattus norvegicus) (UniProt P29276+P30543)
# experiment notes: Inhibition of adenylate cyclase stimulation via Adenosine A2 receptor by NECA in rat pheochromocytoma PC12 cells
# Format: functional, cell-based
# experimental conditions: PC-12
metric name: Kb (µM)

The examples below pair each entry with its known result.
smiles	Kb (µM)
Cc1[nH]c2nc(-c3ccccc3)nc(N)c2c1C	5.5
C=CCn1c(C)c(C)c2c(N)ncnc21	40
Cc1[nH]c2ncnc(O)c2c1C	33

[a] Nc1ncnc2c1c1ccccc1n2-c1ccccc1
[b] Cc1c(C)n([C@H](C)c2ccccc2)c2nc(-c3ccccc3)nc(N)c12
[c] Nc1ncnc2c1ccn2-c1ccccc1
Qu. Thanks in advance: please rank these 3 entries by Kb, highest to lowest. I'd appreciate it if you listed the labels in the requested order.
Ans. c, b, a

[I] Nc1ncnc2c1c1c(n2-c2ccccc2)CCCC1
[II] Cc1c(C)n(-c2ccccc2)c2ncnc(N)c12
Qu. Could you kindly indicate whether I or II has the higher Kb value? Indicate which entry you chose by stating its label.
Ans. II

====

# subject of test: Adenosine receptor A1 (Rattus norvegicus)
# Sequence (P25099 whole entry): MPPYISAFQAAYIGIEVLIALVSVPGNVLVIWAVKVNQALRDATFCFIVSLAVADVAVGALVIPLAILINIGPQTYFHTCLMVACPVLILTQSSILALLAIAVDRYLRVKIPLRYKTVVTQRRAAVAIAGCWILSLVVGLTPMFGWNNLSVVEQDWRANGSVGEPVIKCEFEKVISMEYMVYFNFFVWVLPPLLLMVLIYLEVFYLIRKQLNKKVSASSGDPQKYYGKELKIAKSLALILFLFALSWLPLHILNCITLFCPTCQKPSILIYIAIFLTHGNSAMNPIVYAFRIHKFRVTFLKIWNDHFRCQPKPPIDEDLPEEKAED
metric name: Ki (µM)

The examples below pair each entry with its known result.
compound	Ki / µM
C=CCn1c(C)c(C)c2c(N)ncnc21	49
Cc1[nH]c2ncnc(O)c2c1C	58
Sc1nc(S)c2c3c(n(-c4ccccc4)c2n1)CCCC3	84.8
Cc1c(C)n([C@@H](C)c2ccccc2)c2nc(-c3ccccc3)nc(N)c12	0.165

[P] O=c1[nH]cnc2c1c1c(n2-c2ccccc2)CCCC1
[Q] Cc1[nH]c2nc(-c3cccc(Cl)c3)nc(N)c2c1C
Qu. Could you determine which record has the numerically smaller Ki? Candidates: P and Q Indicate which entry you chose by stating its label.
Ans. Q
(Q: 0.73 µM, P: 2.07 µM)

[A] c1ccc(-n2c3ccccc3c3c(NC4CCCCC4)ncnc32)cc1
[B] Cc1c(C)n(C(C)c2ccccc2)c2nc(-c3ccccc3Cl)nc(N)c12 (stereo not given)
Qu. Could you determine which record has the numerically smaller Ki? Candidates: A and B Indicate which entry you chose by stating its label.
Ans. B
(B: 0.052 µM, A: 1.96 µM)

[I] Cc1nc(N)c2c(C)c(C)n(-c3ccccc3)c2n1
[II] Cc1c(C)n(-c2ccccc2)c2ncnc(N)c12
[III] Cc1c(C)n(-c2ccccc2)c2nc(-c3ccc(Cl)cc3)nc(N)c12
[IV] NNc1ncnc2c1c1ccccc1n2-c1ccccc1
Qu. Thanks in advance: please rank these 4 entries by Ki, highest to lowest. I'd appreciate it if you listed the labels in the requested order.
Ans. I, II, IV, III

====

# subject of test: Adenosine A2 receptor (Rattus norvegicus, UniProt P29276+P30543)
# experiment notes: Binding affinity against Adenosine A2 receptor from rat striatal membrane using [3H]NECA as radioligand
metric name: Ki (µM)

The examples below pair each entry with its known result.
molecule	subject of test	number
Cc1c(C)n(C(C)c2ccccc2)c2nc(-c3cccc(Cl)c3)nc(N)c12 (stereo not given)	Adenosine A2 receptor (Rattus norvegicus, UniProt P29276+P30543)	59.9
Cc1c(C)n(-c2ccccc2)c2nc(-c3ccccc3Cl)nc(N)c12	Adenosine A2 receptor (Rattus norvegicus, UniProt P29276+P30543)	40.7
Cc1[nH]c2ncnc(N)c2c1C	Adenosine A2 receptor (Rattus norvegicus, UniProt P29276+P30543)	208
CCCCCCn1c(C)c(C)c2c(N)ncnc21	Adenosine A2 receptor (Rattus norvegicus, UniProt P29276+P30543)	263
NNc1ncnc2c1c1ccccc1n2-c1ccccc1	Adenosine A2 receptor (Rattus norvegicus, UniProt P29276+P30543)	7.71

[P] Cc1[nH]c2nc(-c3ccc(Cl)cc3)nc(N)c2c1C
[Q] Cc1c(C)n(Cc2ccc(Br)cc2)c2ncnc(N)c12
[R] Cc1[nH]c2nc(-c3cccc(Cl)c3)nc(N)c2c1C
[S] Cc1c(C)n([C@@H](C)c2ccccc2)c2nc(-c3ccccc3)nc(N)c12
Qu. Thanks in advance: please rank these 4 entries by Ki, highest to lowest. I'd appreciate it if you listed the labels in the requested order.
Ans. Q, S, P, R
(Q: 154.9 µM, S: 80.8 µM, P: 35.6 µM, R: 20.8 µM)

====

# subject of test: Adenosine A2 receptor (Rattus norvegicus) (UniProt P29276+P30543)
# experiment notes: Inhibition of adenylate cyclase stimulation via Adenosine A2 receptor by NECA in rat pheochromocytoma PC12 cells
# Assay type: functional, cell-based
# experimental conditions: PC-12
metric name: Kb (nM)

smiles	subject of test	number
Oc1ncnc2c1c1c(n2-c2ccccc2)CCCC1	Adenosine A2 receptor (Rattus norvegicus) (UniProt P29276+P30543)	870

[a] Oc1ncnc2c1c1ccccc1n2-c1ccccc1
[b] CCCCCCn1c(C)c(C)c2c(N)ncnc21
Qu. Could you kindly indicate whether a or b has the higher Kb value? Indicate which entry you chose by stating its label.
Ans. b
(b: 42000 nM, a: 220 nM)

====

pKi: −log10 of the molar value.
Parameter 'readout' = pKi; parameter 'system' = UniProt P25099.

smiles	result
Cc1c(C)n(-c2ccccc2)c2nc(-c3ccccc3)nc(N)c12	7.44
Cc1c(C)n(Cc2ccc(Br)cc2)c2ncnc(N)c12	< 4.00

Qu. Given the entry Cc1c(C)n([C@H]2C[C@H](O)[C@@H](CO)O2)c2ncnc(N)c12 , what pKi was observed with UniProt P25099?
Ans. < 3.60
